Tested Target: calcium receptor (Homo sapiens)
Sequence (P41180 20-1078): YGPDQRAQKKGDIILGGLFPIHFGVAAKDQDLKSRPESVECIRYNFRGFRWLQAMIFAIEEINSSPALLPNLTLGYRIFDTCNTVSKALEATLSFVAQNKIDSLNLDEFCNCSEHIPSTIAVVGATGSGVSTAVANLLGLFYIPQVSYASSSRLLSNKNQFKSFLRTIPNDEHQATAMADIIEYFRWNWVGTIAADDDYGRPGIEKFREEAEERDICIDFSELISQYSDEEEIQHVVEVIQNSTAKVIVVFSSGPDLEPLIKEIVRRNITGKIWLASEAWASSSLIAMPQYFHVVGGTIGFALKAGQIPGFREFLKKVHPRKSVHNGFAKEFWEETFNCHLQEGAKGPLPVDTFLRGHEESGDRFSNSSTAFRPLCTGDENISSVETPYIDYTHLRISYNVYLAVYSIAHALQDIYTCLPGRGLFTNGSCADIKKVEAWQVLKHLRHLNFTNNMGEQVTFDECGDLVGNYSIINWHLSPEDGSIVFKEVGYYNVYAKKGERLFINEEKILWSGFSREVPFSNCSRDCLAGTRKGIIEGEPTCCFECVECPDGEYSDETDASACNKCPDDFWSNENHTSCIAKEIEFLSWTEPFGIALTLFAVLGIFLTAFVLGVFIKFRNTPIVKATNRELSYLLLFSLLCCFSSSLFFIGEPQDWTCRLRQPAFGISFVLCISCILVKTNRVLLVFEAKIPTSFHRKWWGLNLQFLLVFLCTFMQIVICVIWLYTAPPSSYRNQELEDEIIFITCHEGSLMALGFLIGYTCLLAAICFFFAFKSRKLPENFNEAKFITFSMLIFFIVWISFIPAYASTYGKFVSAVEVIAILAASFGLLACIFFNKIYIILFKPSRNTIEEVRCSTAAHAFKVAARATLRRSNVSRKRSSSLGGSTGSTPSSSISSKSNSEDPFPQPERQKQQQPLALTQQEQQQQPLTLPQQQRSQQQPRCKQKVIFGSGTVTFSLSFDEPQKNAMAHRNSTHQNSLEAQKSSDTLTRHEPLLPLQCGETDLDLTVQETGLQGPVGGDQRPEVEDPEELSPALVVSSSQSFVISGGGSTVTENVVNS
Assay Comment: EC50 (concentration evoking a half-maximal effect) at an inorganic ion receptor / calcium receptor
Format: cell-based
pEC50: −log10 of the molar value. Counter-ions that a name gives are not always drawn.

{"columns": ["Compound", "pEC50"],
 "data": [
  ["C[C@@H](NCCCc1ccccc1Cl)c1cccc2ccccc12 [Compound 12Z, hydrochloride]", "> 5.30"]
]}
